Tested on: sera from patients infected with group O HIV-1 retroviruses
experiment_description: Immunoenzymatic test: Test No. 1 (immunoreactivity of peptides coated on microplates)
Assay type: binding, human
Set-up: key: >: signal greater than the reading capacity of the spectrophotometer
test_settings: serum 6689*; cyclized peptide 2 μg/ml
No end group written: not given here.
readout_label: ABSORBANCE

Examples from the recorded data:
INSERT INTO measurements (chain, study_system, endpoint_value) VALUES
  ('LLSLWGCRGKAVCYTSVQWNET [PEPTIDE No. 1 (2B)]', 'sera from patients infected with group O HIV-1 retroviruses', '>'),
  ('LLSLWGCRGRLVCYTSVQWNET [PEPTIDE No. 2 (3B)]', 'sera from patients infected with group O HIV-1 retroviruses', '>'),
  ('RLLALETFIEENELLNLWGCKNRAICYTSVKWNKT (cysteine pairing not given here) [VAU 35 AA, reference compound]', 'sera from patients infected with group O HIV-1 retroviruses', '>'),
  ('LLNLWGCKNRAICYTSVKWNKT (cysteine pairing not given here) [VAU 22 AA, reference compound]', 'sera from patients infected with group O HIV-1 retroviruses', '>');

Consider the additional sequence presented here.
stdin: Any idea what ABSORBANCE was measured for LLSSWGCKGRLVCYTSVQWNET [PEPTIDE No. 3 (4B)] ?
stdout: 0.710

----------
Test system: serum samples from patients infected with group O HIV-1 retroviruses
experiment_description: Immunoenzymatic test: Test No. 2 (immunoreactivity with diluted sera)
Format: binding, human
test_settings: serum MBASSI at 1/100; solid phase peptide 2 μg/ml, cyclized
No end group written: not given here.
readout_label: ABSORBANCE (OD)
Could you keep your reply to the number by itself?

INSERT INTO measurements (chain, readout_label, endpoint_value) VALUES
  ('RLNSWGCKGRLVCYTSV [PEPTIDE No. 16 (23B)]', 'ABSORBANCE (OD)', 2.683),
  ('LNQQRLLNSWGCKGRLVCYTSV [PEPTIDE No. 14 (21B)]', 'ABSORBANCE (OD)', 2.134),
  ('RLQALETLIQNQQRLNLWGCKGKLICYTSVKWNTS (cysteine pairing not given here) [MVP 5180, reference compound]', 'ABSORBANCE (OD)', 0.248),
  ('LLNLWGCKNRAICYTSVKWNKT (cysteine pairing not given here) [VAU 22 AA, reference compound]', 'ABSORBANCE (OD)', 0.257);

stdin: Entry ALETLLQNQQLLNSWGCRGRLVCYTSVRWNET [PEPTIDE No. 11 (18B)] : reported ABSORBANCE (OD) = ?
stdout: 1.150

----------
Recorded ABSORBANCE (OD) for the following sequences
Tested on: serum samples from patients infected with group O HIV-1 retroviruses
experiment_description: Immunoenzymatic test: Test No. 2 (immunoreactivity with diluted sera)
Assay type: binding, human
test_settings: serum 3613 at ¼00; solid phase peptide 2 μg/ml, cyclized
No end group written: not given here.

Worked examples follow.
INSERT INTO measurements (chain, endpoint_value) VALUES
  ('LLNSWGCKGRLVCYTS [PEPTIDE No. 10 (14B)]', 1.108),
  ('LNQQRLLNSWGCKGRLVCYTSV [PEPTIDE No. 14 (21B)]', 1.508),
  ('RLNSWGCKGRLVCYTSV [PEPTIDE No. 16 (23B)]', 1.679),
  ('RLQALETLIQNQQRLNLWGCKGKLICYTSVKWNTS (cysteine pairing not given here) [MVP 5180, reference compound]', 0.478),
  ('ALETLLQNQQLLNSWGCRGRLVCYTSVRWNET [PEPTIDE No. 11 (18B)]', 0.837),
  ('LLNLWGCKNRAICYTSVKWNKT (cysteine pairing not given here) [VAU 22 AA, reference compound]', 0.396),
  ('RALETLLNQQRLLNSWGCKGRLVCYTSV [PEPTIDE No. 15 (22B)]', 1.627),
  ('RLLALETFIEENELLNLWGCKNRAICYTSVKWNKT (cysteine pairing not given here) [VAU 35 AA, reference compound]', 0.250);

Now consider a different sequence.
stdin: Look up ABSORBANCE (OD) for this sequence: ALETLLQNQQLLNIWGCRGRLVCYTSVRWNET [PEPTIDE No. 12 (19B)]
stdout: 0.773

----------
Tested on: sera from patients infected with group O HIV-1 retroviruses
experiment_description: Immunoenzymatic test: Test No. 1 (immunoreactivity of peptides coated on microplates)
Type: binding, human
test_settings: serum 6487; cyclized peptide 2 μg/ml
No end group written: not given here.
readout_label: ABSORBANCE
Just the number, please.

Worked set:
INSERT INTO assay_data (chain, endpoint_value) VALUES
  ('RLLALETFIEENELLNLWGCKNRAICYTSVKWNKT (cysteine pairing not given here) [VAU 35 AA, reference compound]', 2.891),
  ('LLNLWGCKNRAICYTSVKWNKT (cysteine pairing not given here) [VAU 22 AA, reference compound]', 2.889),
  ('LLSLWGCRGRLVCYTSVQWNET [PEPTIDE No. 2 (3B)]', 1.017);

stdin: Quick check: ABSORBANCE of LLSLWGCRGKAVCYTSVQWNET [PEPTIDE No. 1 (2B)] ?
stdout: 2.687

----------
System: sera from patients infected with group O HIV-1 retroviruses
experiment_description: Immunoenzymatic test: Test No. 1 (immunoreactivity of peptides coated on microplates)
Assay type: binding, human
test_settings: serum 4489*; cyclized peptide 2 μg/ml
No end group written: not given here.
readout_label: ABSORBANCE
No unit in the answer, only the number.

stdin: I am curious: what ABSORBANCE value has been reported for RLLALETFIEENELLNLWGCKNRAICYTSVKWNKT (cysteine pairing not given here) [VAU 35 AA, reference compound] ?
stdout: 1.718

stdin: Can you share its ABSORBANCE? I mean this sequence: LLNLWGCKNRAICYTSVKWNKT (cysteine pairing not given here) [VAU 22 AA, reference compound]
stdout: 1.318

----------
Tested on: sera from patients infected with group O HIV-1 retroviruses
experiment_description: Immunoenzymatic test: Test No. 1 (immunoreactivity of peptides coated on microplates)
Assay type: binding, human
Parameters: key: >: signal greater than the reading capacity of the spectrophotometer
test_settings: serum 3627*; cyclized peptide 2 μg/ml
No end group written: not given here.
readout_label: ABSORBANCE

Please review the following examples before continuing.
INSERT INTO measurements (chain, endpoint_value) VALUES
  ('LLSSWGCKGRLVCYTSVQWNET [PEPTIDE No. 3 (4B)]', '>'),
  ('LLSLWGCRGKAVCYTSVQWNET [PEPTIDE No. 1 (2B)]', 2.910),
  ('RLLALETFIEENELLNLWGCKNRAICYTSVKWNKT (cysteine pairing not given here) [VAU 35 AA, reference compound]', '>'),
  ('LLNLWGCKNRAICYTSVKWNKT (cysteine pairing not given here) [VAU 22 AA, reference compound]', '>');

stdin: Please report the recorded ABSORBANCE for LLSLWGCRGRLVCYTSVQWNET [PEPTIDE No. 2 (3B)] .
stdout: >

----------
Tested on: serum samples from patients infected with group O HIV-1 retroviruses
experiment_description: Immunoenzymatic test: Test No. 2 (immunoreactivity with diluted sera)
Assay type: binding, human
test_settings: CLASS C (c: 0.500<OD<1.000); sera of Table V; solid phase peptide 2 μg/ml
Description: The serum samples from patients infected with group O HIV-1 retroviruses were obtained by the Yaounde Pasteur Centre in Cameroon and were serotyped group O according to the serological algorithm described in AIDS (1977), 11, pp. 445-453. A genotyped sample (Maryland) is obtained from the United States. […] The relative absorbance (OD) (A490-A620) read in each well is proportional to the immunoreactivity of each peptide. […]
No end group written: not given here.
# label = Y if Number of samples < 1 else N

stdin: Please check: Number of samples for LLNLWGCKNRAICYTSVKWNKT (cysteine pairing not given here) [VAU 22 AA, reference compound] , strictly under 1 or not?
stdout: Y

----------
System: sera from patients infected with group O HIV-1 retroviruses
experiment_description: Immunoenzymatic test: Test No. 1 (immunoreactivity of peptides coated on microplates)
Type: binding, human
test_settings: serum 7443; cyclized peptide 2 μg/ml
No end group written: not given here.
readout_label: ABSORBANCE
Would you mind answering with just the numeric figure?

stdin: What value of measured ABSORBANCE is listed for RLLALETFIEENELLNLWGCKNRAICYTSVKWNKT (cysteine pairing not given here) [VAU 35 AA, reference compound] ?
stdout: 0.574

stdin: # query: ABSORBANCE of entry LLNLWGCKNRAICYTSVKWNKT (cysteine pairing not given here) [VAU 22 AA, reference compound]
stdout: 0.920

----------
Tested on: sera from patients infected with group O HIV-1 retroviruses
experiment_description: Immunoenzymatic test: Test No. 1 (immunoreactivity of peptides coated on microplates)
Type: binding, human
test_settings: serum 6891; cyclized peptide 2 μg/ml
No end group written: not given here.
readout_label: ABSORBANCE
Note: the reply should be a number with no unit written.

Worked examples, 3 sequences total:
INSERT INTO results (chain, study_system, endpoint_value) VALUES
  ('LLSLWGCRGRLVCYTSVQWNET [PEPTIDE No. 2 (3B)]', 'sera from patients infected with group O HIV-1 retroviruses', 0.614),
  ('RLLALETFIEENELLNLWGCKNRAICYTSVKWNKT (cysteine pairing not given here) [VAU 35 AA, reference compound]', 'sera from patients infected with group O HIV-1 retroviruses', 0.496),
  ('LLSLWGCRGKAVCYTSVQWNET [PEPTIDE No. 1 (2B)]', 'sera from patients infected with group O HIV-1 retroviruses', 0.062);

Proceed to the following item.
stdin: Item under review: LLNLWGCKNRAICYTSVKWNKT (cysteine pairing not given here) [VAU 22 AA, reference compound] . Reported ABSORBANCE?
stdout: 0.359
